Molecular target: Oxysterols receptor LXR-alpha (Homo sapiens, UniProt Q13133)
Sequence (Q13133 whole entry, the tested form may be a part): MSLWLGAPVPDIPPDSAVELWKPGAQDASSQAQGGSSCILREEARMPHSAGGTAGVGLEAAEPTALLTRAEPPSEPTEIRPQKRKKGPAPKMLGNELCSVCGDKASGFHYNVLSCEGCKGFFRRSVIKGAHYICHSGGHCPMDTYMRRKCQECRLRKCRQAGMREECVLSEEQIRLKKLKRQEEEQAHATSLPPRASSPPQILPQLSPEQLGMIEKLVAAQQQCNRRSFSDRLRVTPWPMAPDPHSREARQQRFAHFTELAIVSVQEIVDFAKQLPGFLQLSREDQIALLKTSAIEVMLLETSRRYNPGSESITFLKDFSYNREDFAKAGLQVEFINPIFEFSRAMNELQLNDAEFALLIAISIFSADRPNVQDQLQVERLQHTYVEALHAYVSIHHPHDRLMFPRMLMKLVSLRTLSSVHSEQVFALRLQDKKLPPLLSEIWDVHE
Assay: Agonist activity at human LXRalpha-LBD assessed as recruitment of co-activator peptide after 2 hrs by TR-FRET assay
What EC50 was measured for each of the following?
The figure you give is taken to be in µM; do not add the unit.

Task item: Look up and report measured EC50 for this entry: Oc1cc(O)c2cc(O)c(-c3ccc(O)c(O)c3)[o+]c2c1
Reply: 3.5

Task item: In one line, give reported EC50 of the entry CC(C)CC[C@@H](O)[C@@H](C)[C@H]1CC[C@H]2[C@@H]3CC=C4C[C@@H](O)CC[C@]4(C)[C@H]3CC[C@]12C [22(R)-HYDROXYCHOLESTEROL] .
Reply: 1

----------
endpoint.name: pKd
Entry type: numeric. Quantity: pKd, the -log10 of concentration in molar units.

Task item: Specify the recorded pKd for Oc1cc(O)c2cc(O)c(-c3ccc(O)c(O)c3)[o+]c2c1 [CYANIDIN] , system: Oxysterols receptor LXR-beta (Homo sapiens, UniProt P55055).
Sequence (P55055 whole entry): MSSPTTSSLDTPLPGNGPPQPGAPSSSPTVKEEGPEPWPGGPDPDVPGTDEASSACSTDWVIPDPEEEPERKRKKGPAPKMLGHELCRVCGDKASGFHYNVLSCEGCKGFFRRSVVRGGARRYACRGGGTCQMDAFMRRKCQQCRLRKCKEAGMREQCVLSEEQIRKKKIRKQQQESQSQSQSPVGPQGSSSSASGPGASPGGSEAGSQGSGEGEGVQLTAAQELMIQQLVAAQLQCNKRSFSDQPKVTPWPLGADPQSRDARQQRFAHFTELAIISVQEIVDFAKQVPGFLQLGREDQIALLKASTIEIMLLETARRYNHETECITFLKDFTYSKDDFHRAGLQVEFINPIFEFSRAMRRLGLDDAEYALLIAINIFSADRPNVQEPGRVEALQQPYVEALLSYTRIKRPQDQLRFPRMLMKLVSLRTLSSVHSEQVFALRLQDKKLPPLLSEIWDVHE
Reply: 4.14
